# tgt: Acetylcholinesterase (Homo sapiens)
# assay details: Acetylcholinesterase (AChE) small molecule antagonists: fluorescence cell-based qHTS assay (AID 1347398); also: nearly all actives have a fitted effect of over 50% in size
# condition context: SH-SY5Y cells; AChE activity; series mostly up to 115 µM
Records with an inconclusive call do not appear. Calls of active or inactive are those of the source. Calls follow the shape of the full dose curve.
Mark one answer only. Choices: active, inactive

Q: Which outcome did this test record for the molecule CC(C)O ?
A: inactive

Q: Which outcome did this test record for the molecule CCCCCc1ccco1 ?
A: inactive

Q: Which outcome did this test record for the molecule CCN(CC)c1ccc(N)cc1 ?
A: active

----------
# tgt: Acetylcholinesterase (Homo sapiens) (UniProt P22303)
# Sequence (P22303 whole entry, looked up): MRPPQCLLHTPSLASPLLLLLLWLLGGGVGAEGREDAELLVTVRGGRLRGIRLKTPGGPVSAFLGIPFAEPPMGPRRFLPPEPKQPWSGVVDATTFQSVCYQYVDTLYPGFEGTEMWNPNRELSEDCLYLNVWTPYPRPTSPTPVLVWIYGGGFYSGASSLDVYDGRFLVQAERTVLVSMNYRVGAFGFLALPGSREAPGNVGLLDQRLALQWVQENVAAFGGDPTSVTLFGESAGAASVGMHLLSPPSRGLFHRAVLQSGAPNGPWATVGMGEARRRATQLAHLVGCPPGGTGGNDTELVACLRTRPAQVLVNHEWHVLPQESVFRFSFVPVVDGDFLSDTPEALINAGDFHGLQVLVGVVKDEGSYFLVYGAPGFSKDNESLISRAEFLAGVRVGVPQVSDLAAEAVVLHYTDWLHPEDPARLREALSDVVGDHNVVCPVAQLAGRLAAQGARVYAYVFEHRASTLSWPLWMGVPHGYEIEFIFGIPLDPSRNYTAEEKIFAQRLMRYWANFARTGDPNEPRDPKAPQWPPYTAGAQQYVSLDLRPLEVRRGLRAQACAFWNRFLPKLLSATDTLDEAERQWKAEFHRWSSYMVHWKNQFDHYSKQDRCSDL
# assay details: Acetylcholinesterase (AChE) small molecule antagonists: fluorescence cell-based qHTS assay (AID 1347398); also: nearly all actives have a fitted effect of over 50% in size; as to activity change, negative = inhibition: % is scaled to controls: 0 for no effect and ±100 for the full control effect
# condition context: SH-SY5Y cells; series mostly up to 115 µM
Inconclusive results are not listed. Activity calls are given as the source filed them. Calls follow the shape of the full dose curve.
endpoint: activity change, negative = inhibition

Q: Test system Acetylcholinesterase (Homo sapiens) (UniProt P22303); read-out activity change, negative = inhibition; what value for CCCCCCCCCCCCCCCCCO ?
A: 0.561% [at 23.8 µM] (inactive)

Q: Test system Acetylcholinesterase (Homo sapiens) (UniProt P22303); read-out activity change, negative = inhibition; what value for CCCCCCCCCCCCCCCCN(C)C ?
A: -5.81% [at 10.5 µM] (inactive)

Q: Test system Acetylcholinesterase (Homo sapiens) (UniProt P22303); read-out activity change, negative = inhibition; what value for CCCCCCCCCCCCS(=O)(=O)Cl ?
A: 0.319% [at 23.8 µM] (inactive)

Q: Test system Acetylcholinesterase (Homo sapiens) (UniProt P22303); read-out activity change, negative = inhibition; what value for CCCCCCCC/C=C\CCCCCCCC(=O)OCCCC ?
A: -0.0934% [at 23.8 µM] (inactive)

Q: Test system Acetylcholinesterase (Homo sapiens) (UniProt P22303); read-out activity change, negative = inhibition; what value for Nc1c(NC/C=C\COc2cc(CN3CCCCC3)ccn2)c(=O)c1=O ?
A: -23% [at 23.8 µM] (inactive)

Q: Test system Acetylcholinesterase (Homo sapiens) (UniProt P22303); read-out activity change, negative = inhibition; what value for NC(Cc1ccc(Cl)cc1)C(=O)O (stereo unspecified) ?
A: 9.18% [at 0.439 µM] (inactive)

----------
# tgt: Acetylcholinesterase (Homo sapiens) (UniProt P22303)
# assay details: Acetylcholinesterase (AChE) small molecule antagonists: colormetric cell-based qHTS assay (AID 1347395); also: nearly all actives have a fitted effect of over 30% in size
# condition context: SH-SY5Y cells AChE activity, colorimetric (Ellman); series mostly up to 115 µM
# Excerpt: National Center for Advancing Translational Sciences [NCATS] Division of Preclinical Innovation [DPI] U.S. Environmental Protection Agency [EPA] National Institutes of Environmental Health Sciences [NIEHS] National Toxicology Program [NTP] U.S. Food and Drug Administration [FDA] Acetylcholinesterase (AChE) is the primary cholinesterase in the body that hydrolyzes a key neurotransmitter, acetylcholine. Inhibition of AChE activity can lead to neurotoxicity. […]
Results filed as inconclusive are left out. The source made the active and inactive calls. Calls follow the shape of the full dose curve.
Mark one answer only. Choices: yes = active, no = inactive

Q: Which outcome did this test record for the compound NC(=O)c1ccc(N)cc1 ?
A: no

Q: Which outcome did this test record for the compound O=C(O)Cc1ccc(OCCNC[C@H](O)c2ccccc2)cc1 ?
A: no

Q: Which outcome did this test record for the compound C1C[C@@H]2[C@H]3CC[C@H](C3)[C@@H]2C1 ?
A: no

Q: Which outcome did this test record for the compound O=CC1CC1 ?
A: no

Q: Which outcome did this test record for the compound CCC(Cc1ccccc1)(C(=O)c1ccc(N2CCOCC2)cc1)N(C)C (centres undefined) ?
A: no

Q: Which outcome did this test record for the compound CC(=O)Oc1cccc(C)c1 ?
A: no

Q: Which outcome did this test record for the compound COC(=O)CCSCCC(=O)OC ?
A: no

Q: Which outcome did this test record for the compound O=c1cccccc1O ?
A: no

Q: Which outcome did this test record for the compound CCCCOCCOC(=O)c1cccnc1 ?
A: no

Q: Which outcome did this test record for the compound CC(C)(O)c1ccc(CNC(=O)c2cccnc2Oc2ccc(F)cc2)cc1 ?
A: no

Q: Which outcome did this test record for the compound NS(=O)(=O)c1cc2c(cc1C(F)(F)F)NC(Cc1ccccc1)NS2(=O)=O (centres undefined) ?
A: yes

Q: Which outcome did this test record for the compound CCOC(=O)[C@@H](C)Oc1ccc(Oc2nc3ccc(Cl)cc3o2)cc1 ?
A: no

Q: Which outcome did this test record for the compound O=S1(=O)CCCC1 ?
A: no

Q: Which outcome did this test record for the compound Cc1c(I)c(=O)n(-c2ccccc2)n1C ?
A: no

Q: Which outcome did this test record for the compound OCCC(O)CO (centres undefined) ?
A: no

Q: Which outcome did this test record for the compound CC(C)=CCC/C(C)=C/C#N ?
A: no

Q: Which outcome did this test record for the compound C/C(=N\[Si](C)(C)C)O[Si](C)(C)C ?
A: no

Q: Which outcome did this test record for the compound CC1(C)S[C@@H]2[C@H](NC(=O)C(c3ccccc3)S(=O)(=O)O)C(=O)N2[C@H]1C(=O)O (some centres undefined) ?
A: no

Q: Which outcome did this test record for the compound CCOc1nc2cccc(C(=O)OC(C)OC(=O)OC3CCCCC3)c2n1Cc1ccc(-c2ccccc2-c2nn[nH]n2)cc1 (centres undefined) ?
A: no

Q: Which outcome did this test record for the compound C/C=C/C(=O)C1=C(C)C=CCC1(C)C ?
A: no

Q: Which outcome did this test record for the compound CCCCCCCCCCCC(=O)[O][Sn]([CH2]CCC)([CH2]CCC)[O]C(=O)CCCCCCCCCCC ?
A: no

Q: Which outcome did this test record for the compound CC(C)=CCCC(C)O (centres undefined) ?
A: no

Q: Which outcome did this test record for the compound O=C1CCC(=O)N1 ?
A: no

Q: Which outcome did this test record for the compound O=C(O)c1cccc(Cl)n1 ?
A: no

Data credit: PubChem BioAssay (Tox21)
